Origin of the recorded values: ChEMBL document CHEMBL5247579

Tested on: MIA PaCa-2
Method Notes: Antiproliferative activity against human MIA PaCa-2 cells assessed as reduction in cell viability incubated for 24 hrs by CCK-8 assay
Format: functional, cell-based
Measurement Context: MIA PaCa-2, 24 h
Experimental Endpoint: EC50 (nM)

smi=O=C1c2ccccc2C(=O)c2c1cc(NS(=O)(=O)c1ccc(N3CCCC3)cc1)c(O)c2O experimental_endpoint=EC50 endpoint_value=271

###

Tested on: ASPC1
Method Notes: Antiproliferative activity against human ASPC1 cells assessed as reduction in cell viability incubated for 24 hrs by CCK-8 assay
Format: functional, cell-based
Measurement Context: ASPC1, 24 h
Experimental Endpoint: EC50 (nM)

smi=O=C1c2ccccc2C(=O)c2c1cc(NS(=O)(=O)c1ccc(N3CCCC3)cc1)c(O)c2O experimental_endpoint=EC50 endpoint_value=510
